Origin of values: patent US11413278B2

# Test system: C. elegans
# test_description: C. elegans lifespan assays (liquid and plate)
# Assay type: in vivo, Caenorhabditis elegans
# condition_info: summary score
Items are presented alongside their recorded M = Lifespan-extending scores in worms.

Q: Return value of M = Lifespan-extending scores in worms for input O=C1NCCCc2cc(Cl)sc21 [O1] , no commentary.
A: 0

Q: Give the measured M = Lifespan-extending scores in worms for Cc1ccc(S(=O)(=O)Nc2cccc3cccnc23)cc1 [Gr-3B]
A: 2 (2 for observed in more than 2 trials)

Q: Input O=C(/C(=C/c1ccc(Cl)cc1)c1nc2ccccc2[nH]1)c1ccccc1 [Gr-4D] , output reported M = Lifespan-extending scores in worms.
A: 2 (2 for observed in more than 2 trials)

Q: For the molecule COc1ccc(/C=C2\SC(=N)N(c3nccs3)C2=O)cc1 [O21] , give its measured M = Lifespan-extending scores in worms value.
A: 0

Q: Input O=[N+]([O-])c1ccccc1S(=O)(=O)Nc1cccc2cccnc12 [Gr-3A] , output reported M = Lifespan-extending scores in worms.
A: 2 (2 for observed in more than 2 trials)

Q: Provide M = Lifespan-extending scores in worms value for the following molecule: Nc1ccccc1S(=O)(=O)Nc1cccc2cccnc12 [Gr-3C]
A: 2 (2 for observed in more than 2 trials)

====

Documented A = Cadmium resistant across a set of compounds
# Tested on: WI-38 cells
# test_description: CdCl2 (cadmium) resistance assay
# Format: cell-based, human
# condition_info: summary score

Q: Using WI-38 cells as the test system, report measured A = Cadmium resistant of CCc1ccc(Oc2nc3ccccn3c(=O)c2/C=C(\C#N)C(=O)NC2CCCCC2)cc1 [Gr-5A] .
A: 0

Q: State measured A = Cadmium resistant of the compound Cc1ccc(NC(=O)c2ccc([N+](=O)[O-])o2)cc1C [Gr-1F] with WI-38 cells.
A: 1

Q: Lab note: record A = Cadmium resistant of COc1ccc(C(=O)/C=C/c2ccccc2Br)c(OC)c1 [Gr-4B] tested on WI-38 cells.
A: 1

Q: Print WI-38 cells A = Cadmium resistant for Nc1ccccc1S(=O)(=O)Nc1cccc2cccnc12 [Gr-3C] .
A: 0

Q: State the measured A = Cadmium resistant (WI-38 cells) of COc1cccc(/C=C2\CN(C)C/C(=C\c3cccc(OC)c3OC)C2=O)c1OC [O23]
A: 1

Q: Return reported A = Cadmium resistant for target or system WI-38 cells, item CC(C)(C)c1ccc(OCC(=O)Nc2ccc3c4c(cccc24)C(=O)NC3=O)cc1 [O22] .
A: 1

Q: Would you please give the reported A = Cadmium resistant of CCc1ccc(Oc2nc3ccccn3c(=O)c2/C=C(\C#N)C(=O)NCc2ccco2)cc1 [Gr-5B] with WI-38 cells?
A: 0

Q: Report the value of A = Cadmium resistant obtained on WI-38 cells for Oc1ncnc2sc3c(c12)CCC3 [O14] .
A: 1

Q: Name the value of A = Cadmium resistant reported for O=C(NCc1cccnc1)/C(=C\c1cccc(Oc2ccccc2)c1)S(=O)(=O)c1ccccc1 [Gr-7A] when tested on WI-38 cells.
A: 1

Q: Report A = Cadmium resistant under test system WI-38 cells for CNC(=O)/C(C#N)=C/c1c(Oc2ccc(C(C)(C)C)cc2)nc2ccccn2c1=O [Gr-5D] .
A: 1

====

# System: NRF2
# test_description: in vitro
# Format: cell-based, human
# condition_info: at least 2 of 3 independent experiments
readout_name: NRF2-dependency of H2O2-resistance (NRF2 siRNA knockdown)

molecule	val
O=C(NCc1cccnc1)/C(=C/c1ccc(-c2ccc(Cl)cc2)o1)S(=O)(=O)c1ccccc1 [Gr-7C]	significantly attenuate
Cc1cc(C)c(C(=O)/C=C/c2ccccc2F)c(O)n1 [O18]	significantly attenuate
COC(=O)CCc1sc2c(c1[N+](=O)[O-])NC(=O)CCC2 [O20]	significantly attenuate
COc1cccc(/C=C2\CN(C)C/C(=C\c3cccc(OC)c3OC)C2=O)c1OC [O23]	significantly attenuate
O=C(/C=C/c1cn(-c2ccccc2)nc1-c1cccnc1)c1ccccc1 [Gr-6B]	significantly attenuate
O=C(NCc1cccnc1)/C(=C\c1ccc(Br)cc1)S(=O)(=O)c1ccccc1 [Gr-7B]	significantly attenuate
CCCN1C/C(=C\c2ccc(F)cc2)C(=O)/C(=C/c2ccc(F)cc2)C1 [O15]	significantly attenuate

Q: In one line, give reported NRF2-dependency of H2O2-resistance (NRF2 siRNA knockdown) of the entry CC(C)(C)c1ccc(OCC(=O)Nc2ccc3c4c(cccc24)C(=O)NC3=O)cc1 [O22] .
A: significantly attenuate

====

# Test system: WI-38 cells
# condition_info: no H2O2 stress, 10 uM; negative control 0.41% ± 0.23%
Catalogue of Percentage of propidium iodide-positive dead cells (no H2O2 stress treatment), at 10 uM values

compound_structure_string	system_under_test	val
Cc1ccc(NC(=O)c2ccc([N+](=O)[O-])o2)cc1C	WI-38 cells	3.27% ± 0.82%,
Nc1ccccc1S(=O)(=O)Nc1cccc2cccnc12	WI-38 cells	0.57% ± 0.24%,
COc1cccc(/C=C2\CN(C)C/C(=C\c3cccc(OC)c3OC)C2=O)c1OC	WI-38 cells	2.61% ± 1.37%,
O=C(c1ccc([N+](=O)[O-])o1)N1CCc2ccccc21	WI-38 cells	0.69% ± 0.12%,
COc1ccc(/C=C2\SC(=N)N(c3nccs3)C2=O)cc1	WI-38 cells	1.09% ± 0.39%,

Q: Name the value of Percentage of propidium iodide-positive dead cells (no H2O2 stress treatment), at 10 uM reported for "Cc1ccc(S(=O)(=O)Nc2cccc3cccnc23)cc1" when tested on WI-38 cells.
A: 0.47% ± 0.20%,

Q: Send back WI-38 cells Percentage of propidium iodide-positive dead cells (no H2O2 stress treatment), at 10 uM of "O=[N+]([O-])c1ccccc1S(=O)(=O)Nc1cccc2cccnc12" only.
A: 0.54% ± 0.16%,

Q: Look up WI-38 cells data: Percentage of propidium iodide-positive dead cells (no H2O2 stress treatment), at 10 uM of "N=C1S/C(=C\c2cn(-c3ccccc3)nc2-c2cccs2)C(=O)N1c1nccs1" , then report it.
A: 0.66% ± 0.26%,

Q: Fetch value of Percentage of propidium iodide-positive dead cells (no H2O2 stress treatment), at 10 uM on WI-38 cells for "Cc1cc(N)n(-c2ccccc2C(=O)O)n1" .
A: 0.41% ± 0.17%,

Q: State recorded Percentage of propidium iodide-positive dead cells (no H2O2 stress treatment), at 10 uM with WI-38 cells, entry "O=C(/C(=C/c1ccc(Cl)cc1)c1nc2ccccc2[nH]1)c1ccccc1" , no comment.
A: 0.42% ± 0.15%,

====

# System: FOXO3
# test_description: qPCR analysis of FOXO3-regulated genes
# Assay type: cell-based, human
# condition_info: Homo sapiens; qPCR; WI-38 cells; 10 μM, n=4, 24 hrs; normalized by B2M; read-out: TXNIP Normalized fold change
readout_name: fold induction at 10 µM
Lab note: record just the number, no unit beside it.

Q: Tell us which fold induction at 10 µM value is on record for "COc1ccc(C(=O)/C=C/c2cccc(Cl)c2)c(OC)c1"
A: 0.179

Q: Give recorded fold induction at 10 µM. "COc1cccc(/C=C2\CN(C)C/C(=C\c3cccc(OC)c3OC)C2=O)c1OC"
A: 0.071

Q: Given the compound "Nc1ccccc1S(=O)(=O)Nc1cccc2cccnc12" , write its reported fold induction at 10 µM.
A: 1.03

====

# Tested on: WI-38 cells
# condition_info: WI-38; no H2O2; control 0.4±0.2%
# Protocol: WI-38 cells were seeded on 384-well plates for 24 hrs and then incubated with small molecules for 24 hrs. […] Images were collected on an INCell Analyzer 2000 (GE) and analyzed with the Developer software.
List of PI-positive dead cells under normal conditions values.
Quick reminder: number only, in %, skip the unit.

compound_structure_string	val
O=C(Nc1cccc(Cl)c1)c1ccc([N+](=O)[O-])o1	4.2
COc1ccc(/C=C2\SC(=N)N(c3nccs3)C2=O)cc1	1.1
Cc1ccc(NC(=O)c2ccc([N+](=O)[O-])o2)cc1C	3.3

Would you kindly look at the next entry?
Q: Tell me its PI-positive dead cells under normal conditions on WI-38 cells: "CCc1ccccc1NC(=O)c1ccc([N+](=O)[O-])o1"
A: 3.5

====

Catalogue of Q = Potential toxicity values
# Test system: WI-38 cells
# test_description: Long-term effects on cell viability (5 days, ATP; morphology, PI imaging)
# Assay type: cell-based
# condition_info: human, 5 days, 10 μM
// return a plain number; no unit text

Answered cases to consult:
compound_structure_string	Q = Potential toxicity
O=C(Nc1cccc(C(F)(F)F)c1)c1ccc([N+](=O)[O-])o1	0
O=C(NCc1cccnc1)/C(=C/c1ccc(-c2ccc(Cl)cc2)o1)S(=O)(=O)c1ccccc1	1

Turning now to a further molecule:
Q: Lab note: WI-38 cells assay, enter Q = Potential toxicity for "CC(C)(C)c1ccc(OCC(=O)Nc2ccc3c4c(cccc24)C(=O)NC3=O)cc1" here
A: 0
